- measurement description: The drug is tested on WLS-010 corresponding to human gut metagenome with ENA study accession number: PRJEB37062 and ENA sample accession number: ERS12561743 for biotransformation under anaerobic condition. The drug concentrations were measured over 9 timepoints collected between 0 and 24 hours of incubation by liquid-chromatography-coupled mass spectrometry (LC–MS); note: call rule not given here
- experimental context: 2 µM
quantity name: Bacterial Biotransformation

{"compound": "CC(=O)O[C@H]1C(=O)[C@@]2(C)[C@H]([C@H](OC(=O)c3ccccc3)[C@]3(O)C[C@H](OC(=O)[C@H](O)[C@@H](NC(=O)c4ccccc4)c4ccccc4)C(C)=C1C3(C)C)[C@]1(OC(C)=O)CO[C@@H]1C[C@@H]2O [PACLITAXEL]", "quantity name": "Bacterial Biotransformation", "value observed": "Compound metabolized"}
{"compound": "CC(C)(C)N.CCC[C@H](N[C@@H](C)C(=O)N1[C@H](C(=O)O)C[C@@H]2CCCC[C@@H]21)C(=O)OCC [PERINDOPRIL ERBUMINE]", "quantity name": "Bacterial Biotransformation", "value observed": "Compound metabolized"}
{"compound": "CN(C)C(=O)Oc1cccc([N+](C)(C)C)c1.[Br-] [NEOSTIGMINE BROMIDE]", "quantity name": "Bacterial Biotransformation", "value observed": "Compound NOT metabolized"}
{"compound": "COc1ccc(CN2CCNCC2)c(OC)c1OC.Cl.Cl [TRIMETAZIDINE DIHYDROCHLORIDE]", "quantity name": "Bacterial Biotransformation", "value observed": "Compound NOT metabolized"}
{"compound": "C=CC[C@@H]1/C=C(\\C)C[C@H](C)C[C@H](OC)[C@H]2O[C@@](O)(C(=O)C(=O)N3CCCC[C@H]3C(=O)O[C@H](/C(C)=C/[C@@H]3CC[C@@H](O)[C@H](OC)C3)[C@H](C)[C@@H](O)CC1=O)[C@H](C)C[C@@H]2OC.O [TACROLIMUS]", "quantity name": "Bacterial Biotransformation", "value observed": "Compound metabolized"}
{"compound": "CCOc1cc(CC(=O)N[C@@H](CC(C)C)c2ccccc2N2CCCCC2)ccc1C(=O)O [REPAGLINIDE]", "quantity name": "Bacterial Biotransformation", "value observed": "Compound metabolized"}
{"compound": "O=P1(N(CCCl)CCCl)NCCCO1 (configuration not stated) [CYCLOPHOSPHAMIDE ANHYDROUS]", "quantity name": "Bacterial Biotransformation", "value observed": "Compound NOT metabolized"}

###

- measurement description: The drug is tested on WLS-220 corresponding to human gut metagenome with ENA study accession number: PRJEB37062 and ENA sample accession number: ERS12561769 for biotransformation under anaerobic condition. The drug concentrations were measured over 9 timepoints collected between 0 and 24 hours of incubation by liquid-chromatography-coupled mass spectrometry (LC–MS)
- experimental context: 2 µM

{"molecule": "COc1cc2nc(N3CCN(C(=O)C4COc5ccccc5O4)CC3)nc(N)c2cc1OC.CS(=O)(=O)O (configuration not stated) [DOXAZOSIN MESYLATE]", "Bacterial Biotransformation": "Compound metabolized"}
{"molecule": "COc1cc(NC(C)CCCN)c2ncccc2c1.O=P(O)(O)O.O=P(O)(O)O (configuration not stated) [PRIMAQUINE PHOSPHATE]", "Bacterial Biotransformation": "Compound metabolized"}
{"molecule": "Clc1cccc(Cl)c1N=C1NCCN1", "Bacterial Biotransformation": "Compound metabolized"}
{"molecule": "CCCC(C)(COC(N)=O)COC(=O)NC(C)C (configuration not stated)", "Bacterial Biotransformation": "Compound metabolized"}
{"molecule": "CC(=O)CCCCn1c(=O)c2c(ncn2C)n(C)c1=O", "Bacterial Biotransformation": "Compound NOT metabolized"}
{"molecule": "CCOC(=O)[C@H](CCc1ccccc1)N[C@@H](C)C(=O)N1Cc2ccccc2C[C@H]1C(=O)O", "Bacterial Biotransformation": "Compound metabolized"}
{"molecule": "CC12CC3CC(C)(C1)CC(N)(C3)C2 [MEMANTINE]", "Bacterial Biotransformation": "Compound NOT metabolized"}
{"molecule": "CCOc1cc(CC(=O)N[C@@H](CC(C)C)c2ccccc2N2CCCCC2)ccc1C(=O)O [REPAGLINIDE]", "Bacterial Biotransformation": "Compound metabolized"}
{"molecule": "COc1cc(C(=O)NCc2ccc(OCCN(C)C)cc2)cc(OC)c1OC [TRIMETHOBENZAMIDE]", "Bacterial Biotransformation": "Compound NOT metabolized"}
{"molecule": "CCN(CC)CCNC(=O)c1cc(S(C)(=O)=O)ccc1OC [TIAPRIDE]", "Bacterial Biotransformation": "Compound metabolized"}
{"molecule": "Nc1nc(N)nc(-c2cc(Cl)ccc2Cl)n1.O=C(O)/C=C\\C(=O)O [IRSOGLADINE MALEATE]", "Bacterial Biotransformation": "Compound NOT metabolized"}
{"molecule": "O=C1C(CC[S+]([O-])c2ccccc2)C(=O)N(c2ccccc2)N1c1ccccc1 (configuration not stated)", "Bacterial Biotransformation": "Compound metabolized"}
{"molecule": "CN[C@H]1CC[C@@H](c2ccc(Cl)c(Cl)c2)c2ccccc21", "Bacterial Biotransformation": "Compound metabolized"}
{"molecule": "CN(CCOc1ccc(CC2SC(=O)NC2=O)cc1)c1ccccn1.O=C(O)/C=C\\C(=O)O (configuration not stated) [ROSIGLITAZONE MALEATE]", "Bacterial Biotransformation": "Compound metabolized"}
{"molecule": "CCCCC(=O)O[C@]1(C(=O)CO)[C@@H](C)C[C@H]2[C@@H]3CCC4=CC(=O)C=C[C@]4(C)[C@@]3(F)[C@@H](O)C[C@@]21C [BETAMETHASONE VALERATE]", "Bacterial Biotransformation": "Compound metabolized"}
{"molecule": "COc1cc2nc(N3CCN(C(=O)C4CCCO4)CC3)nc(N)c2cc1OC (configuration not stated)", "Bacterial Biotransformation": "Compound metabolized"}
{"molecule": "O=C(NC(Cc1cc(=O)[nH]c2ccccc12)C(=O)O)c1ccc(Cl)cc1 (configuration not stated) [REBAMIPIDE]", "Bacterial Biotransformation": "Compound NOT metabolized"}
{"molecule": "CN(C)C(=O)Oc1cccc([N+](C)(C)C)c1.[Br-] [NEOSTIGMINE BROMIDE]", "Bacterial Biotransformation": "Compound NOT metabolized"}
{"molecule": "COC(=O)C(c1ccccc1)C1CCCCN1 (configuration not stated) [METHYLPHENIDATE]", "Bacterial Biotransformation": "Compound metabolized"}
{"molecule": "C[C@@H](c1ncncc1F)[C@](O)(Cn1cncn1)c1ccc(F)cc1F", "Bacterial Biotransformation": "Compound metabolized"}
{"molecule": "CN1[C@@H]2CC[C@H]1C[C@@H](OC(=O)c1c[nH]c3ccccc13)C2", "Bacterial Biotransformation": "Compound NOT metabolized"}
{"molecule": "O=C(O)CCC(=O)O.O=C(O[C@H]1CN2CCC1CC2)N1CCc2ccccc2[C@@H]1c1ccccc1 [SOLIFENACIN SUCCINATE]", "Bacterial Biotransformation": "Compound NOT metabolized"}
{"molecule": "O=C([O-])C[C@H](O)C[C@H](O)/C=C/c1c(C2CC2)nc2ccccc2c1-c1ccc(F)cc1.O=C([O-])C[C@H](O)C[C@H](O)/C=C/c1c(C2CC2)nc2ccccc2c1-c1ccc(F)cc1.[Ca+2]", "Bacterial Biotransformation": "Compound metabolized"}
{"molecule": "CN1CCC(=C2c3ccccc3CC(=O)c3sccc32)CC1.O=C(O)/C=C/C(=O)O [KETOTIFEN FUMARATE]", "Bacterial Biotransformation": "Compound metabolized"}
{"molecule": "O=P1(N(CCCl)CCCl)NCCCO1 (configuration not stated) [CYCLOPHOSPHAMIDE ANHYDROUS]", "Bacterial Biotransformation": "Compound metabolized"}
{"molecule": "CCOc1ccc2nc(S(N)(=O)=O)sc2c1 [ETHOXZOLAMIDE]", "Bacterial Biotransformation": "Compound NOT metabolized"}
{"molecule": "C#C[C@]1(OC(C)=O)CC[C@H]2[C@@H]3CCC4=C[C@@H](OC(C)=O)CC[C@@H]4[C@H]3CC[C@@]21C [ETHYNODIOL DIACETATE]", "Bacterial Biotransformation": "Compound metabolized"}
{"molecule": "CC(C)(C)NCC(O)c1cc(Cl)c(N)c(Cl)c1 (configuration not stated)", "Bacterial Biotransformation": "Compound NOT metabolized"}
{"molecule": "CNCC[C@H](Oc1cccc2ccccc12)c1cccs1", "Bacterial Biotransformation": "Compound NOT metabolized"}
{"molecule": "CC(=O)O[C@H]1C(=O)[C@@]2(C)[C@H]([C@H](OC(=O)c3ccccc3)[C@]3(O)C[C@H](OC(=O)[C@H](O)[C@@H](NC(=O)c4ccccc4)c4ccccc4)C(C)=C1C3(C)C)[C@]1(OC(C)=O)CO[C@@H]1C[C@@H]2O", "Bacterial Biotransformation": "Compound NOT metabolized"}
{"molecule": "C[C@]12C=CC(=O)C=C1CC[C@@H]1[C@@H]2C(=O)C[C@@]2(C)[C@H]1CC[C@]2(O)C(=O)CO", "Bacterial Biotransformation": "Compound metabolized"}
{"molecule": "COCCCC/C(=N\\OCCN)c1ccc(C(F)(F)F)cc1.O=C(O)/C=C\\C(=O)O [FLUVOXAMINE MALEATE]", "Bacterial Biotransformation": "Compound metabolized"}
